This collection of values is drawn from ChEMBL document CHEMBL5131409.

- run description: Tmax in rat plasma at 3 mg/kg, ip
- Format: ADME, organism-based
property label: Tmax (min)
// units = min; emit number, no label

Inquiry: Entry CC(=O)Nc1ccc(-c2ccc(NC[C@@H]3CC34CCN(CC3CCOCC3)CC4)nn2)cc1 has what Tmax?
Reply text: 15

----------
- study target: Cytochrome P450 3A4 (Homo sapiens, UniProt P08684)
- Sequence (P08684 whole entry, canonical isoform): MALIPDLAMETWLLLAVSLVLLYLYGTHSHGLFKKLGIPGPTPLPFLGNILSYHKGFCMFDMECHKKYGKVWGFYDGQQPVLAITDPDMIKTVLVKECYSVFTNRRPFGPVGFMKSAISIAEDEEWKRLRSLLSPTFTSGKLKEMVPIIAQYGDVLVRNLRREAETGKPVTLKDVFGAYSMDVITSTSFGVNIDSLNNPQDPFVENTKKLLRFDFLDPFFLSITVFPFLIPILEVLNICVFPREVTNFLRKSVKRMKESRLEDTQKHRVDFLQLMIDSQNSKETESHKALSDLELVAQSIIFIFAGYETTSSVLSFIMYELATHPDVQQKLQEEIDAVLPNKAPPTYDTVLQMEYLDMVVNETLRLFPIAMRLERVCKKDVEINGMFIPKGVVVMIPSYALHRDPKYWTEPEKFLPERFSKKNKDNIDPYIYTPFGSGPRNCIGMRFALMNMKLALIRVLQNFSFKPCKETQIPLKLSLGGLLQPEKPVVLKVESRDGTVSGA
- run description: Inhibition of CYP3A4 in human liver microsomes using cocktail of isoform-specific probe substrate
property label: IC50

Cn1cc2cc(-c3ccc(NC[C@@H]4CC45CCN(CC4CCOCC4)CC5)nn3)ccc2n1 :: > 30 µM
CC(=O)Nc1ccc(-c2ccc(NC[C@@H]3CC34CCN(CC3CCOCC3)CC4)nn2)cc1 :: > 30 µM
Fc1ccc(Cl)c(-c2ccc(NC[C@@H]3CC34CCN(CC3CCOCC3)CC4)nn2)c1 :: > 30 µM

Inquiry: Entry Fc1ccc(F)c(-c2ccc(NC[C@@H]3CC34CCN(CC3CCOCC3)CC4)nn2)c1 has what IC50?
Reply text: 17 µM

Inquiry: Request: [2H]C([2H])(C1CCOCC1)N1CCC2(CC1)C[C@H]2CNc1ccc(-c2cc(F)cc(F)c2F)nn1
Reply text: 27.6 µM

Inquiry: Request: Fc1cc(F)c(F)c(-c2ccc(NC[C@@H]3CC34CCN(CC3CCOCC3)CC4)nn2)c1
Reply text: > 30 µM

Inquiry: Request: c1ccc(-c2ccc(NC[C@@H]3CC34CCN(CC3CCOCC3)CC4)nn2)cc1
Reply text: > 30 µM
